# STUDY SYSTEM: Prostaglandin G/H synthase 1 (Mus musculus, UniProt P22437)
# Sequence (P22437 whole entry): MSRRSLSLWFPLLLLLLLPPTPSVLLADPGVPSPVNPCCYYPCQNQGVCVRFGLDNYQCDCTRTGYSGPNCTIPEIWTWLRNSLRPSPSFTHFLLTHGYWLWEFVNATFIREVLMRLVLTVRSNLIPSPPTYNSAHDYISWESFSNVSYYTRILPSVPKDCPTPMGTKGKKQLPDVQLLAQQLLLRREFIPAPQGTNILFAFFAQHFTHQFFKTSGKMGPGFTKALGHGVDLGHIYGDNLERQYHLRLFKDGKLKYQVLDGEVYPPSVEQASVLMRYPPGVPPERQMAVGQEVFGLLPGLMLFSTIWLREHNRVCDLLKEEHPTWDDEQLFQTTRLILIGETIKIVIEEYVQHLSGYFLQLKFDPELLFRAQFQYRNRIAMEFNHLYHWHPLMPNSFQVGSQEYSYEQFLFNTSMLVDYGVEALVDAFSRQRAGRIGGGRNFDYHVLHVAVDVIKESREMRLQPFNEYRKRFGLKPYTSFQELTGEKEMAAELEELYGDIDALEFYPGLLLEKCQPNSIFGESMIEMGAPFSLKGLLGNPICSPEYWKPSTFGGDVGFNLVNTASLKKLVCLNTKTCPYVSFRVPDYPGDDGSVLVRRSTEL
# PROTOCOL DESCRIPTION: Inhibition of COX1 in arachidonic acid-stimulated mouse J774 cells assessed as inhibition of PGE2 production after 15 mins by radioimmunoassay
pIC50: −log10 of the molar value.
READOUT NAME: pIC50

CCOC(=O)[C@H](O)c1cc(-c2ccc(S(C)(=O)=O)cc2)n(-c2ccc(OC)cc2)c1C	< 4.00

Missing value: pIC50, Prostaglandin G/H synthase 1 (Mus musculus, UniProt P22437), entry CCOC(=O)C(O)c1cc(-c2ccc(S(C)(=O)=O)cc2)n(-c2cccc(F)c2)c1C (racemic) . Fill in? < 4.00

// query: CCOC(=O)C(OCC)c1cc(-c2ccc(S(C)(=O)=O)cc2)n(-c2cccc(F)c2)c1C (racemic) < 4.00

// query: CCOC(=O)C(OCC)c1cc(-c2ccc(S(C)(=O)=O)cc2)n(-c2ccc(OC)cc2)c1C (racemic) < 4.00

// query: CCOC(=O)[C@H](O)c1cc(-c2ccc(S(C)(=O)=O)cc2)n(-c2cccc(F)c2)c1C < 4.00

// query: CCOC(=O)[C@@H](OCC)c1cc(-c2ccc(S(C)(=O)=O)cc2)n(-c2ccccc2)c1C < 4.00

// query: CCOC(=O)C(O)c1cc(-c2ccc(S(C)(=O)=O)cc2)n(-c2ccc(OC)cc2)c1C (racemic) < 4.00

// query: CCOC(=O)[C@H](O)c1cc(-c2ccc(S(C)(=O)=O)cc2)n(-c2ccccc2)c1C < 4.00
